# max activity per record follows
Experiment: inhibitors of Clostridioides difficile proliferation – 4-point retest, confirmation (AID 1224921);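 note: plate controls were DMSO wells for no effect and levofloxacin 16 µg/mL wells for full effect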
Settings: Clostridioides difficile clinical isolate growth, OD600, 24 h, stronger effect = lower value; at 30 µM unless noted
The campaign covered roughly 1,400 compounds. About 350 (25%) were called active. Inconclusive results (about 2%) are left out. A selection follows. Potency and affinity values are given separately.
measured property: max activity

1. O=C(C[C@H]1CC[C@H](NC(=O)CCN2CCCCC2)[C@H](CO)O1)Nc1nccs1 = -18.1% [at 8 µM] (inactive)
2. CCCC(=O)Nc1ccc2c(c1)C(=O)N(C)C[C@H](OC)[C@@H](C)CN(CC1CCOCC1)[C@H](C)CO2 = -10.3% (inactive)
3. CCCC#Cc1ccc2c(c1)O[C@H](CN(C)Cc1ccncc1)[C@@H](C)CN([C@@H](C)CO)S2(=O)=O = 18.4% (inactive)
4. C[C@H]1CN([C@@H](C)CO)C(=O)Cc2cc(NS(C)(=O)=O)ccc2O[C@H]1CN(C)Cc1ccccc1 = 10.4% (inactive)
5. C/C=C/c1cnc2c(c1)C(=O)N([C@@H](C)CO)C[C@H](C)[C@@H](CN(C)Cc1ccc(F)cc1)O2 = -8.42% [at 8 µM] (inactive)
6. C[C@@H]1CN([C@H](C)CO)C(=O)c2cccc(NC(=O)c3ccncc3)c2O[C@H]1CN(C)Cc1ccc(-c2ccccc2)cc1 = 36.1% [at 8 µM] (inactive)
7. C[C@@H]1CN([C@H](C)CO)C(=O)c2ccccc2-c2ccccc2CO[C@@H]1CN(C)S(=O)(=O)c1ccsc1 = 12% [at 1.95 µM] (inactive)
8. COc1cccc(NC(=O)N[C@H]2CC[C@H](CC(=O)Nc3ccc(-c4ccccc4)cc3)O[C@H]2CO)c1 = 32.5% (inactive)
9. COc1ccccc1CNC(=O)C[C@H]1C[C@@H]2c3cc(NC(=O)NC4CCCC4)ccc3O[C@@H]2[C@H](CO)O1 = -8.77% [at 2.1 µM] (inactive)
10. C[C@@H]1CN([C@@H](C)CO)C(=O)c2cccc(NC(=O)c3ccncc3)c2O[C@H]1CN(C)Cc1ccc(-c2ccccc2)cc1 = 13.2% [at 8 µM] (inactive)
11. O=C(N[C@@H]1C=C[C@@H](CC(=O)N2CCCCC2)O[C@@H]1CO)c1ccc2c(c1)OCO2 = 15.7% [at 8 µM] (inactive)
12. CCNC(=O)C[C@H]1C=C[C@H](NS(=O)(=O)c2ccc(F)cc2)[C@H](CO)O1 = -12% (inactive)
13. CCCC(=O)Nc1ccc2c(c1)C(=O)N(C)C[C@H](OC)[C@@H](C)CN(Cc1ccccc1)[C@H](C)CO2 = 15.3% (inactive)
14. CO[C@H]1CN(C)C(=O)c2ccc(NC(=O)C3CC3)cc2OC[C@H](C)N(Cc2cncnc2)C[C@@H]1C = -11.8% (inactive)
15. O=C(Nc1ccc(F)cc1)Nc1ccc2c(c1)[C@H]1C[C@@H](CC(=O)N3CCCCC3)O[C@H](CO)[C@H]1O2 = -19.5% [at 2.1 µM] (inactive)
16. CCCN1C[C@@H](C)[C@H](OC)CN(C)C(=O)c2ccc(NC(=O)Nc3c(C)noc3C)cc2OC[C@@H]1C = 21.5% (inactive)

* * *

Reported max activity values are given for each entry in this list.
Assay: inhibitors of Clostridioides difficile proliferation – 4-point retest, confirmation (AID 1224921);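 note: plate controls were DMSO wells for no effect and levofloxacin 16 µg/mL wells for full effect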
Conditions: Clostridioides difficile clinical isolate growth, OD600, 24 h, stronger effect = lower value; at 30 µM unless noted
In all, about 1,400 compounds went through this assay and about 350 (25%) were called active. Not shown: some 2% with an inconclusive outcome. The list is a sample of the results. Results with a measured potency or affinity are listed apart.
measured property: max activity

1. CO[C@@H]1CN(C)C(=O)c2cc(NC(=O)c3ccc(Oc4ccccc4)cc3)ccc2OC[C@H](C)NC[C@H]1C = -11.3% [at 0.5 µM] (inactive)
2. CCC(=O)Nc1ccc2c(c1)C(=O)N(C)C[C@@H](OC)[C@@H](C)CN(C(=O)CN1CCOCC1)[C@H](C)CO2 = 18.1% (inactive)
3. CCC(=O)N(C)C[C@@H]1Oc2cc(C#CCC3CCCC3)ccc2S(=O)(=O)N([C@H](C)CO)C[C@H]1C = 29.4% (inactive)
4. C[C@H](CO)N1C[C@H](C)[C@@H](CN(C)C(=O)c2ccccc2)OCCCC[C@H](C)Oc2ccc(NC(=O)Nc3cccc4ccccc34)cc2C1=O = 39.2% (inactive)
